B1: TPR t1 (parent)
chain: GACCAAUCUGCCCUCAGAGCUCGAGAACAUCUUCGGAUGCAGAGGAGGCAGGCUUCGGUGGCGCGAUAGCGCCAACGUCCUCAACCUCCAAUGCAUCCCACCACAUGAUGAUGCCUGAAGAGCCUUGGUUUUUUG

- Variants of: B1
- assayOverview: polymerase ribozyme fitness, log enrichment relative to wild type (log ratio); higher = more active; in vitro selection for triplet polymerase activity
polymerase ribozyme fitness (log ratio) of -4 or higher: True. Under -4: False.

# example entries with known answers
C64U A111C    True
C89G A90G G127C    True
G39U C76A U125G    True

Please check the record C22G C28U A37U G48A G71A G110C and state if its polymerase ribozyme fitness (log ratio) is at or above -4.
False

Hi, just wondering whether C4A U130G shows polymerase ribozyme fitness (log ratio) of -4 or higher.
True

Kindly determine if polymerase ribozyme fitness (log ratio) recorded for U9G C13U G17U U87C is above or exactly -4.
True

hey, is polymerase ribozyme fitness (log ratio) for this one >= -4? U14C G63C U112G G113U
False

Check this variant for polymerase ribozyme fitness (log ratio) at or above -4: C13U G45U A84G A121U
True

All figures here come from the RNAGym collection of RNA variant scans (doi:10.1073/pnas.2313332121).
